Measured values drawn from PubChem BioAssay (Tox21) for this set.

- experiment description: qHTS RealTime-Glo MT Cell Viability Assay in HepG2 cells - 24 hour (AID 1224867); note: % is set by controls: 0 for no effect and ±100 for the full control effect; nearly all actives have a fitted effect of over 50% in size
- experimental context: RealTime-Glo luminescence; series mostly up to 76.8 µM
Results filed as inconclusive are left out. Active and inactive are the calls of the source. Calls come from the whole dose curve; as a rule, active = well fitted cell-killing curve with a large enough effect in the repeat runs; inconclusive = weak or mixed curves; inactive = flat fitted curve, though single readings scatter.

molecule	activity change, negative = cytotoxicity
OCC(CO)n1cnc(-c2ccc(F)cc2)c1-c1ccnc(Oc2ccccc2)n1	inactive
C1=CCC2CC=CC2C1 (configuration not stated)	inactive
CSSc1ccoc1C	inactive
COc1ccc(-c2cc(=S)ss2)cc1	inactive
CCSC(=O)N(CC)CC	inactive
COc1cc(NC(C)CCCN)c2ncccc2c1 (configuration not stated)	inactive
CC(C)c1ccc(C(=O)N=C(N)N)cc1S(C)(=O)=O	inactive
CC(=O)OC(C)C[N+](C)(C)C (configuration not stated)	inactive
COC(=O)CC(C(C)=O)C(=O)OC (configuration not stated)	inactive
CC(=O)OCCC(C)CC(C)(C)C (configuration not stated)	inactive
O=C1OC(=O)c2c(Br)c(Br)c(Br)c(Br)c21	inactive
O=C(O)c1cccc(C[C@@H]2COc3ccc(OCc4nc5cc(F)ccc5s4)cc3[C@@H]2O)c1	inactive
CCCCCCOC(=O)CCCCC	inactive
O=C(O)c1cc(Cl)cc(Cl)c1O	inactive
CC(C)C(=O)OCCOc1ccccc1	inactive
COc1ccc(C2C(=O)c3ccccc3C2=O)cc1	inactive
CC(=O)OCC1=C(C(=O)O)N2C(=O)[C@@H](NC(=O)CSc3ccncc3)[C@H]2SC1	inactive
CCO[Si](C)(CCCOCC1CO1)OCC (configuration not stated)	inactive
CCN(CC)c1cccc(O)c1	inactive
Cc1ccc2c(c1[N+](=O)[O-])C(=O)c1ccccc1C2=O	inactive
Cc1ccc2c(c1)CCCN2	inactive
Oc1cccc2[nH]ccc12	inactive
CCNc1nc(N)nc(Cl)n1	inactive
Cc1c(C2(c3cc(Br)c(O)c(Br)c3C)OS(=O)(=O)c3ccccc32)cc(Br)c(O)c1Br	inactive
O=C(O)CN1C(=O)c2cccc3cccc(c23)C1=O	inactive
CCCCCCC(O)CCOC(C)=O (configuration not stated)	inactive
Cc1cc([N+](=O)[O-])ccc1N	inactive
SCCc1cnccn1	inactive
NC(=O)CCCCC(N)=O	inactive
NC(=O)c1ccccc1[N+](=O)[O-]	inactive
Cc1ccc(N(CCO)CCO)cc1	inactive
O=S(=O)(O)CO	inactive
O=C(O)CNC(=O)c1ccccc1I	inactive
COC(C)(C)OC	inactive
C[C@@H]1C[C@H]2[C@@H]3CCC4=CC(=O)C=C[C@]4(C)[C@@]3(F)[C@@H](O)C[C@]2(C)[C@@]1(O)C(=O)COP(=O)(O)O	inactive
C=CC(=O)O	inactive
COc1ccc(C)cc1	inactive
CCC(CO)(CO)CO	inactive
CC(C)Cc1ccc(CC(=O)O)cc1	inactive
COc1ccc(-c2cc(C(F)F)nn2-c2ccc(S(N)(=O)=O)cc2)cc1F	inactive
CCN(CC)C(=O)N1CCN(C)CC1	inactive
Cc1ccc(Nc2c(F)cccc2Cl)c(CC(=O)O)c1	inactive
CCCC(=O)OC(=O)CCC	inactive
COC(OC)OC	inactive
C1CCCCC1	inactive
C/C(C=O)=C\c1ccccc1	inactive
CC(=O)c1ccc[nH]1	inactive
CCN(Cc1cccc(S(=O)(=O)O)c1)c1ccc(C(=C2C=CC(=[N+](CC)Cc3cccc(S(=O)(=O)O)c3)C=C2)c2ccccc2S(=O)(=O)[O-])cc1	inactive
CC1=CC[C@@H]2C[C@H]1C2(C)C	0.892% [at 15.8 µM] (inactive)
CCCCCCCCCCCCCCCC(=O)OCC	inactive
O=[N+]([O-])c1ccc2ncccc2c1	inactive
CS(=O)(=O)c1ccc([C@@H](C[C@H]2CCC(=O)C2)C(=O)Nc2cnccn2)cc1Cl	inactive
COC(=O)Nc1nc2ccc(C(=O)C3CC3)cc2[nH]1	inactive
[Cl][Nd]([Cl])[Cl]	inactive
O=C(O)/C=C/c1ccc(O)c(O)c1	inactive
O=S(=O)(Cl)c1c(Cl)cccc1Cl	inactive
N[C@@H](Cc1cc(I)c(O)c(I)c1)C(=O)O	inactive

###

- experiment description: qHTS RealTime-Glo MT Cell Viability Assay in HepG2 cells - 8 hour (AID 1224873); note: % is set by controls: 0 for no effect and ±100 for the full control effect; nearly all actives have a fitted effect of over 55% in size
- experimental context: RealTime-Glo luminescence; series mostly up to 76.8 µM
Inconclusive results are not listed. Active and inactive are the calls of the source. Calls come from the whole dose curve; as a rule, active = well fitted cell-killing curve with a large enough effect in the repeat runs; inconclusive = weak or mixed curves; inactive = flat fitted curve, though single readings scatter.
test readout: viability change, negative = cytotoxic

molecular string	readout value
Cc1ccc(Nc2c(F)cccc2Cl)c(CC(=O)O)c1	inactive
ClC1=C(Cl)C1(Cl)Cl	inactive
Cc1ccc(N(CC2=NCCN2)c2cccc(O)c2)cc1	inactive
CC(=O)OCC1=C(C(=O)O)N2C(=O)[C@@H](NC(=O)CSc3ccncc3)[C@H]2SC1	inactive
CCCCCCCCCCCCCOC(=O)CCSCCC(=O)OCCCCCCCCCCCCC	-12% [at 15.8 µM] (inactive)
COc1cc(NS(=O)(=O)c2ccc(N)cc2)nc(C)n1	inactive
CCOc1ncc(F)c(=O)[nH]1	inactive
Nc1c(Cl)cc(Cl)cc1[N+](=O)[O-]	inactive
O=C(O)CCC(=O)OC[C@@H](NC(=O)C(Cl)Cl)[C@H](O)c1ccc([N+](=O)[O-])cc1	inactive
CCSC(=O)N(CC)CC	inactive
O=C1c2ccccc2C(=O)c2c(O)ccc(O)c21	inactive
CCOC(=O)N1CCC(Nc2ccc(Cl)cc2N)CC1	inactive

###

- experiment description: qHTS assay to test for compound auto fluorescence at 460 nm (blue) in HepG2 cell free culture (AID 720685); note: % is set by controls: 0 for no effect and ±100 for the full control effect
- experimental context: Cell-free culture medium, blue autofluorescence 405/460 nm; series mostly up to 91.3 µM
Active and inactive are the calls of the source. Calls come from the whole dose curve; as a rule, active = well fitted curve in the direction sought with a large enough effect in the repeat runs; inconclusive = weak or mixed curves; inactive = flat fitted curve, though single readings scatter.

molecule	fluorescence, % of fluorescent control
CCN(CC)C(=O)N1CCN(C)CC1	-0.0488% [at 18.6 µM] (inactive)
FC(F)(F)C(F)(F)C(F)(F)C(F)(F)CCI	inactive
c1ccc2sc(SSc3nc4ccccc4s3)nc2c1	inactive
CCC(Cl)CC(Cl)C(Cl)C(Cl)C(Cl)C(C)Cl (stereo unspecified)	0.066% [at 13.4 µM] (inactive)
ClC1=C(Cl)C1(Cl)Cl	inactive
O=S(=O)(O)CO	inactive
COC(=O)c1sccc1S(N)(=O)=O	inactive
CCCCCCCCCCCC(=O)OCC(O)CO (stereo unspecified)	inactive
Cc1ccc(N(CC2=NCCN2)c2cccc(O)c2)cc1	inactive
CCCCC[C@H](O)/C=C/[C@H]1[C@H](O)CC(=O)[C@@H]1C/C=C\CCCC(=O)O	inactive
O=C(c1ccccc1)c1ccc(O)cc1	inactive
COC1CCC=CO1 (stereo unspecified)	inactive
CCC(=O)OCc1ccc(OC)cc1	inactive
O=C(O)CCCc1c[nH]c2ccccc12	inactive
O[C@@H](CNC[C@H](O)[C@H]1CCc2cc(F)ccc2O1)[C@@H]1CCc2cc(F)ccc2O1	inactive
Nc1nc2ccc(OC(F)(F)F)cc2s1	inactive
Nc1ccc(NC(=O)c2ccc(N)cc2)cc1	inactive
CCN(Cc1cccc(S(=O)(=O)O)c1)c1ccc(C(=C2C=CC(=[N+](CC)Cc3cccc(S(=O)(=O)O)c3)C=C2)c2ccc(O)cc2S(=O)(=O)[O-])cc1	inactive
CC(C)(C(=O)c1cccnc1)c1cccnc1	-0.0441% [at 18.6 µM] (inactive)
O=C1NC(=O)c2cccc3cccc1c23	inactive
Cc1ccc(S(=O)(=O)NC(=O)NC2CCCCC2)cc1	inactive
CCCCCCCCCCCCCOS(=O)(=O)O	inactive
O=c1[nH][nH]c(=O)c2cc([N+](=O)[O-])ccc12	inactive
COc1cc(NS(=O)(=O)c2ccc(N)cc2)nc(C)n1	inactive
COc1ccc(-c2cc(C(F)F)nn2-c2ccc(S(N)(=O)=O)cc2)cc1F	inactive
CN1CCCN(C(c2ccccc2)c2ccc(Cl)cc2)CC1 (stereo unspecified)	inactive

###

- target desc: Progesterone receptor (Homo sapiens) (UniProt P06401)
- Sequence (P06401 whole entry, looked up): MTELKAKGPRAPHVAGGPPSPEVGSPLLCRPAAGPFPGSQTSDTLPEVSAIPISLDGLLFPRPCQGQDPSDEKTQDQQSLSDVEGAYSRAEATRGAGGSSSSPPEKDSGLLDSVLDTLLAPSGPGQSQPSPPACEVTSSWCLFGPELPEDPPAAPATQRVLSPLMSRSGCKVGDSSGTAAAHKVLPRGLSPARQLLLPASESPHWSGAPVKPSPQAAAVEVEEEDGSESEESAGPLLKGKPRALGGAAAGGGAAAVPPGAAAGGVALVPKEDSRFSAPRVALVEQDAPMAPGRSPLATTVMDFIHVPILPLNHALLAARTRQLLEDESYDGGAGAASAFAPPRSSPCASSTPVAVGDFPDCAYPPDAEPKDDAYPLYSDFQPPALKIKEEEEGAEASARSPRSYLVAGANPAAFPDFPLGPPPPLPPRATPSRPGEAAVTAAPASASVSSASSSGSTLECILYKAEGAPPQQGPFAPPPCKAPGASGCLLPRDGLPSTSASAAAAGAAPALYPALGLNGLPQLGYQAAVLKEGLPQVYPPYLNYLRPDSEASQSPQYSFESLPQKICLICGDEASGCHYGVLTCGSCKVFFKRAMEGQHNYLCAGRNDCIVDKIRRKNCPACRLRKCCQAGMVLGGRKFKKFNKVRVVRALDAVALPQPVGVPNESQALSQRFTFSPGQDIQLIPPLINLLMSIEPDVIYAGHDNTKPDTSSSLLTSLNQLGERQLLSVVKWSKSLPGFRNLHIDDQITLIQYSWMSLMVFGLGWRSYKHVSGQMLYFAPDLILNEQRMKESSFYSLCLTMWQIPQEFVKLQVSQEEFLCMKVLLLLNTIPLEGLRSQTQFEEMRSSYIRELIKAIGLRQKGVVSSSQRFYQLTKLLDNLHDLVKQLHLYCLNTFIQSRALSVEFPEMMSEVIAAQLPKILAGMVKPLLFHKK
- experiment description: qHTS assay to identify small molecule agonists of the progesterone receptor (PR) signaling pathway (AID 1346784); note: nearly all actives have a fitted effect of over 30% in size
- experimental context: PR-UAS-bla HEK293T, beta-lactamase FRET ratio, 16 h; series mostly up to 92.4 µM
- Description: U.S. Tox21 Program National Center for Advancing Translational Sciences [NCATS] NIH Chemical Genomics Center [NCGC] U.S. Environmental Protection Agency [EPA] National Institutes of Environmental Health Sciences [NIEHS] National Toxicology Program [NTP] U.S. Food and Drug Administration [FDA] […] Endocrine disrupting chemicals (EDCs) and their interactions with steroid hormone receptors like PR causes disruption of normal endocrine function. […]
Records with an inconclusive call do not appear. Active and inactive are the calls of the source. Calls follow the shape of the full dose curve.
Labels: active, inactive

molecule	assigned class
C=Cc1ccc(OC(C)=O)cc1	inactive
N[C@@H](Cc1cc(I)c(O)c(I)c1)C(=O)O	inactive
CCCCCCCC(=O)OCCCCCC	inactive
CC1=C2[C@@H]([C@H](C)CC[C@H]2/C=C(\C)C(=O)O)[C@H](O)C1	inactive
CCC1CCC(CCC(=O)O)C1 (stereo not drawn)	inactive
FC(F)(F)C(F)(F)C(F)(F)C(F)(F)CCI	inactive
CC(C)C1CCC(C(=O)N[C@H](Cc2ccccc2)C(=O)O)CC1 (stereo partly drawn)	inactive
Nc1ccn([C@H]2CS[C@@H](CO)O2)c(=O)n1	inactive
COc1ccc(CCN(C)CCCN2CCc3cc(OC)c(OC)cc3CC2=O)cc1OC	inactive
CCCCCCCCCCCCCCN(C)C	active
CNc1c2c(nn1C)CCCC2	inactive
CC(C)(C)C(O)/C=C/c1ccc2c(c1)OCO2 (stereo not drawn)	inactive
CSSc1ccoc1C	inactive
